All figures here come from paper PMC5008373.

# Tgt: T-cell-originated protein kinase (TOPK) (Homo sapiens, UniProt Q96KB5)
# Construct: gene PBK
# Procedure text: microscale thermophoresis with labeled recombinant TOPK (reference inhibitor)
# Format: binding
# Experimental setup: read-out: Dissociation constant with TOPK / Kd^b
Endpoint name: Kd
Please don't drop the unit; write it after the number.

Enquiry: GET /values?readout=Kd&item= N#Cc1c2nc3ccccc3nc2n2ccc(NC(=O)c3cccs3)cc12
Return: 327 µM

---

Exercise: state measured pKd for each of the compounds provided.
# Tgt: T-cell-originated protein kinase (TOPK) (Homo sapiens)
# Construct: gene PBK
# Sequence (Q96KB5 1-322): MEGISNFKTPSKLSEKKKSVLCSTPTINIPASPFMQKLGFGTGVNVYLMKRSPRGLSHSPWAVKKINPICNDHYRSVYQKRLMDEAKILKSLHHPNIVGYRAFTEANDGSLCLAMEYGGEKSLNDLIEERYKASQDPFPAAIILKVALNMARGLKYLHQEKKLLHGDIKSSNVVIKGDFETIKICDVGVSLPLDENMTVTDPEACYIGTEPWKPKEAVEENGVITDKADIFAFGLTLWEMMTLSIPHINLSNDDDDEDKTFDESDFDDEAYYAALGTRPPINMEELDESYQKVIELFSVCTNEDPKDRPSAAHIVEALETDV
# Procedure text: biochemical
# Assay type: binding
# Experimental setup: read-out: Dissociation constant with TOPK / Kd^b
pKd is defined as minus the log10 of a concentration measured in mol/L.

Enquiry: Observed pKd on T-cell-originated protein kinase (TOPK) (Homo sapiens) for CC(=O)Nc1ccc(OCC(O)CNC(C)C)cc1 (centres unmarked) [Practolol] , please.
Return: 3.65

Enquiry: Query pKd on T-cell-originated protein kinase (TOPK) (Homo sapiens) for NC(CO)C(=O)NNCc1ccc(O)c(O)c1O (centres unmarked) [Benserazide]
Return: 3.32
